For each of the compounds below, state its growth inhibition.
# assay-name: HT29 colon tumor cell growth inhibition, primary screen, imaging, high content imaging, 24 h, CellTiter-Glo (AID 770)
# test-conditions: HT29 cell number by imaging, measured here: ATP CellTiter-Glo viability, at 10 µM, stronger effect = higher value
Screen size: about 3,300 compounds; fewer than 10 were called active. A selection follows.
Numbers only, in %.

Solved entries:
COc1ccc(OC)c(NC(=O)CSc2nnc(-c3ccco3)n2-c2ccc(C(=O)O)cc2)c1 | -8.2
CCOC(=O)NC(O)C(=O)c1cccs1 (stereo unspecified) | -7.3
COCCOC(=O)C1=C(C)OC(N)=C(C#N)C1c1ccco1 (stereo unspecified) | 1.7

Consider the following items and state reported growth inhibition for each.
1. CC(C)Nc1nc(NC(C)C)nc(N(C)n2cnnc2)n1
2. CSC1=C(C#N)C(c2ccc(C)s2)CC(=O)N1 (stereo unspecified)
3. COC(=O)C(NC(C)=O)(Nc1ccccc1)C(=O)OC
4. COc1cccc(C2/C(=C(\O)c3ccc4c(c3)OCCO4)C(=O)C(=O)N2CCN(C)C)c1 (stereo unspecified)
5. CC(=Nc1ccc(C)c(C)c1)C1=C(O)CCC1=O
6. COC(=O)c1ccc(C2/C(=C(/O)c3ccc(OC)cc3)C(=O)C(=O)N2Cc2ccco2)cc1 (stereo unspecified)
7. Cc1ccc(N2C(=O)CC3(CC4C=CC3C4)C2=O)cc1 (stereo unspecified)
8. Cc1cc(Cn2ccnc2)c(C)cc1Cn1ccnc1

Return:
-9.08
4.49
-9.05
-0.26
-5.94
-0.21
9.8
11.6

Consider the following items and state reported growth inhibition for each.
1. COc1ccccc1NC(=O)c1c(C)cc(=O)oc1C
2. COc1nc(NS(=O)(=O)c2ccc(C)cc2)nc(C)c1Cl
3. Oc1oc(-c2ccccc2)nc1C=NCc1ccncc1
4. CCc1nc2sc3c(c2c(=O)o1)CCCC3
5. Nc1nnnn1CC(=O)OCc1cccc(Br)c1
6. C=CCN=C(C)C1=C(O)CCC1=O
7. CCOC(=O)c1cc(CC)sc1NC(=O)C1CC1
8. CN(CCOC(=O)c1cccc(Br)c1)C(C)(C)C

Return:
1: -2.65; 2: -6.08; 3: -2.06; 4: -2.13; 5: -5.1; 6: -5.99; 7: -9.23; 8: 3.02

Consider the following items and state reported growth inhibition for each.
1. Cn1c(=O)c2c(nc(Br)n2CCSc2ncccn2)n(C)c1=O
2. CCOC(=O)N1CCN(c2ncnc3c2cnn3-c2ccc(OC)cc2)CC1
3. COCc1[nH]nc2c1C(c1ccccc1OC)C(C#N)=C(N)O2 (stereo unspecified)
4. Cc1ccc(C(=O)C2=C(O)C(=O)N(CCN3CCOCC3)C2c2ccccn2)o1 (stereo unspecified)

Return:
[6.9, 5.78, -0.21, 0.76]

* * *

# assay-name: HT29 colon tumor cell growth inhibition, primary screen, imaging, high content imaging, 24 h, CellTiter-Glo (AID 770);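 for condensed nuclei: share of cells whose nuclear area falls below control median minus 1.5 SD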
# test-conditions: HT29 cell number by imaging, measured here: percent cells with condensed nuclei, at 10 µM, stronger effect = higher value
Hit rate of the full screen: of about 3,300 compounds, fewer than 10 were called active. A selection follows.
For each of the compounds below, state its condensed nuclei.
Answers are plain numbers, in %.

Solved entries:
COc1ccc(C2NC(=O)NC(O)(C(F)(F)F)C2C(=O)c2ccc(F)cc2)cc1 (stereo unspecified) | 2.45
Cc1cccc(C)c1OCC(O)CNS(=O)(=O)c1ccccc1C(=O)N1CCOCC1 (stereo unspecified) | 3.46
CCSc1nnc(NC(=O)C(CC)(C(F)(F)F)C(F)(F)F)s1 | 3.03
CCCCOc1ccc(CN(C)c2ncnc(N)n2)cc1 | 6.77
c1ccc(OCc2nn3c(C4CCCCC4)nnc3s2)cc1 | 2.15
Cc1ccc2[nH]c3c(N4CCCCCC4)ncnc3c2c1 | 5.98
CCN(CC)CCCn1c(C)cc2c(c1=O)C(c1ccccc1)C(C#N)=C(N)O2 (stereo unspecified) | 3.21
CCOC(=O)CC1=NC(=O)CS1 | 1.37
Cc1ccc(S(=O)(=O)NC(=O)Nc2ncc3c(n2)CC(c2ccco2)CC3=O)cc1 (stereo unspecified) | 2.73
O=C1C(=O)N(CCCn2ccnc2)C(c2ccccn2)/C1=C(/O)c1ccccc1 (stereo unspecified) | 3.21

Consider the following items and state reported condensed nuclei for each.
1. O=C(NCc1ccccn1)c1ccc(=O)oc1
2. CC1(C)CC(=O)C2=C(C1)N(Cc1ccco1)C(=O)C2(O)C(F)(F)F (stereo unspecified)
3. Nc1nonc1-c1noc(N2CCOCC2)n1

Return:
1. 2.33
2. 2.44
3. 1.72
